- experiment.summary: Approximate solubility of Compound 1 Form I at 25° C. and 50° C. (visual observation)
- Assay type: physicochemical
- stated.conditions: DMSO, 50 °C, organic solvent or mixture, thermodynamic from solid
recorded.metric: solubility

The recorded solubility for O=C1CC[C@H](N2C(=O)c3cccc4c(Cc5ccc(CN6CCOCC6)cc5)ccc2c34)C(=O)N1 [Compound 1 Form I] is 167 to 250 mg/mL

----------
- experiment.summary: Approximate solubility of Compound 1 Form I at 25° C. and 50° C. (visual observation)
- Format: physicochemical
- stated.conditions: acetone, 25 °C, organic solvent or mixture, thermodynamic from solid
recorded.metric: solubility

O=C1CC[C@H](N2C(=O)c3cccc4c(Cc5ccc(CN6CCOCC6)cc5)ccc2c34)C(=O)N1 [Compound 1 Form I] yielded solubility of < 5000 µg/mL
